// cross-source set; read-out = IC50; system = Proto-oncogene tyrosine-protein kinase Src (Homo sapiens, UniProt P12931)

MOLECULE | TESTED TARGET | IC50
Cn1cc(-c2cnc3[nH]cc(C(=O)c4c(F)ccc(NS(=O)(=O)c5cccc(OC(F)F)c5)c4F)c3c2)cn1 | Proto-oncogene tyrosine-protein kinase Src (Homo sapiens, UniProt P12931) | ≤ 10000 nM
CN(C)C/C=C/C(=O)N1CCC(C#Cc2c(-c3ccc(Oc4ccccc4)cc3)c3c(N)ncnc3n2C2CCOC2)C1 (stereo not shown) | Proto-oncogene tyrosine-protein kinase Src (Homo sapiens, UniProt P12931) | 10 to 1000 nM
COc1ccc(F)c(C(=O)c2c[nH]c3ncc(-c4cccc(NS(C)(=O)=O)c4)cc23)c1F | Proto-oncogene tyrosine-protein kinase Src (Homo sapiens, UniProt P12931) | ≤ 10000 nM
COCCOCCOCC[S+]([O-])c1ccc(Nc2cc(Oc3ccc(NC(=O)Nc4cc(C(C)(C)C)cc(NS(C)(=O)=O)c4OC)c4ccccc34)ccn2)cc1OC (stereo not shown) | Proto-oncogene tyrosine-protein kinase Src (Homo sapiens, UniProt P12931) | 76 nM
COc1c(NC(=O)Nc2ccc(Oc3ccnc(N(C)C)n3)c3ccccc23)cc(C(C)(C)C)cc1P(C)(C)=O | Proto-oncogene tyrosine-protein kinase Src (Homo sapiens, UniProt P12931) | > 1780 nM
COc1cc(-c2cc3nccc(-c4cccc5[nH]ccc45)c3o2)cc(OC)c1OC | Proto-oncogene tyrosine-protein kinase Src (Homo sapiens, UniProt P12931) | 300 to 3000 nM
NC(=O)c1cccc(-c2cnc3[nH]cc(C(=O)c4cccc(NS(=O)(=O)c5cccnc5)c4)c3c2)c1 | Proto-oncogene tyrosine-protein kinase Src (Homo sapiens, UniProt P12931) | ≤ 10000 nM
